Readings of fold change of affinity for the listed binders
# experimental-system: T1, Human CD3eg linker (human)
# T1 construct: Single-chain construct; also called recombinant human CD3
# T1 chain: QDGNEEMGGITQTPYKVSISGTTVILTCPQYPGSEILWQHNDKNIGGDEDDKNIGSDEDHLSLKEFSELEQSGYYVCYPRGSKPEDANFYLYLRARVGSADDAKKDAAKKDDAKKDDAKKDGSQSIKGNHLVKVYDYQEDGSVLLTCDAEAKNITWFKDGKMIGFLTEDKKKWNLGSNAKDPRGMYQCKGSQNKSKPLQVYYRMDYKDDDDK
# measurement-notes: SPR; fold vs parent H183/L072
Enter your answer as a number in fold; do not include the unit.

Give the reported value of fold change of affinity for this record: H183/L072 VL S52V (antibody, name in Kabat numbering, V domains shown) VH: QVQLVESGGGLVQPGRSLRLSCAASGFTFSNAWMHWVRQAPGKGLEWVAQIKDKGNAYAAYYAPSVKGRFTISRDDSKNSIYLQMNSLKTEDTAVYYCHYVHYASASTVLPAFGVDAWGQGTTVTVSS VL: DIVMTQSPLSLPVTPGEPASISCQASQELVHMNRNTYLHWYQQKPGQAPRLLIYKVVNRFPGVPDRFSGSGSGTDFTLKISRVEAEDVGVYYCAQGTSVPFTFGQGTKLEIK
1.6

Give the reported value of fold change of affinity for this record: H183/L072 VL Q24I (antibody, name in Kabat numbering, V domains shown) VH: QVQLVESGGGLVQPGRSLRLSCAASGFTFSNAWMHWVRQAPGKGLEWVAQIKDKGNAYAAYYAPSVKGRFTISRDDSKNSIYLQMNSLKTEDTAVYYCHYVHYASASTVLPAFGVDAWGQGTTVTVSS VL: DIVMTQSPLSLPVTPGEPASISCIASQELVHMNRNTYLHWYQQKPGQAPRLLIYKVSNRFPGVPDRFSGSGSGTDFTLKISRVEAEDVGVYYCAQGTSVPFTFGQGTKLEIK
1.2

Give the reported value of fold change of affinity for this record: H183/L072 VL T97I (antibody, name in Kabat numbering, V domains shown) VH: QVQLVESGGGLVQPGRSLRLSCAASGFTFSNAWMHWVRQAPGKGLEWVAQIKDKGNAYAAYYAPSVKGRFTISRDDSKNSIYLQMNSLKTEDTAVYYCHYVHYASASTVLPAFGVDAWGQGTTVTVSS VL: DIVMTQSPLSLPVTPGEPASISCQASQELVHMNRNTYLHWYQQKPGQAPRLLIYKVSNRFPGVPDRFSGSGSGTDFTLKISRVEAEDVGVYYCAQGTSVPFIFGQGTKLEIK
0.5
